Listing of recorded pIC50 by entry.
Test system: MDA-MB-435
Experiment: Cytotoxicity against human MDA-MB-435 cells after 72 hrs by MTT assay
Assay type: functional, cell-based
Conditions: MDA-MB-435, 72 h
pIC50: −log10 of the molar value.

>>> print(df.to_string())
                                   compound  result
0  CCCC1=C(OC2(CCC)C(=O)C(=O)C3=C(CCCC3)C2=O)C(=O)C2=C(CCCC2)C1=O (configuration not stated)  < 4.94
1  COc1cc(-c2nc3ccc4c(c3[nH]2)C(=O)c2ccccc2C4=O)ccc1O  < 4.87
2  CCCC1=C(OC2(CCC)C(=O)C(=O)c3ccccc3C2=O)C(=O)c2ccccc2C1=O (configuration not stated)  < 4.94
3        CC(C)CCC1=C(O)C(=O)C2=C(CCCC2)C1=O  < 4.70
4  C=CCC1=C(OC2(CC=C)C(=O)C(=O)c3ccccc3C2=O)C(=O)c2ccccc2C1=O (configuration not stated)  < 4.93

q: Consider the compound O=C1c2ccccc2C(=O)c2c1ccc1nc(-c3ccc(F)cc3)[nH]c21 . State its measured pIC50.
a: < 4.84

q: Consider the compound Cc1ccccc1-c1nc2ccc3c(c2[nH]1)C(=O)c1ccccc1C3=O . State its measured pIC50.
a: < 4.83

q: Consider the compound O=C1c2ccccc2C(=O)c2c1ccc1nc(-c3ccc(O)cc3)[nH]c21 . State its measured pIC50.
a: < 4.83

q: Consider the compound O=C1c2ccccc2C(=O)c2c1ccc1nc(-c3ccccc3)[nH]c21 . State its measured pIC50.
a: < 4.81

q: Consider the compound CCCC1=C(O)C(=O)C2=C(CCCC2)C1=O . State its measured pIC50.
a: < 4.64

q: Consider the compound CC1(C)OC2C(=O)c3ccccc3C(=O)C2[C@@H](N=[N+]=[N-])[C@@H]1Br (some centres not stated) . State its measured pIC50.
a: 5.40

q: Consider the compound CC1(C)OC2=C(C(=O)C(=O)c3ccccc32)[C@H](n2cc(-c3ccccc3)nn2)[C@H]1Br . State its measured pIC50.
a: 5.91
